- System: OVCAR-5 ovarian
- assay_explanation: NCI tumour cell line growth inhibition, 48 h
attribute_measured: TGI

* Clc1cc(Br)c2c3c(c(Br)cc(Cl)c13)C(Br)=C2Br | > 100 µM
* C=CCNS(=O)(=O)c1ncnc2nc[nH]c12 | > 100 µM
* C=C(CN1CCN(c2cccc(C(F)(F)F)n2)CC1)c1ccc(C(=S)Nc2ccccc2N)cc1 | > 100 µM
* C/C(=C\COc1c2c(cc3c1CCO3)OC1(C=C2)OC(CC/C(C)=C/COc2c3ccoc3cc3oc(=O)ccc23)C(C)(C)O1)CCC(O)C(C)(C)O (stereo unspecified) | > 100 µM
* Cc1cc(O)cc(C)c1/C=C/c1cncc(-c2nn[nH]n2)c1 | > 25 µM
* CC1=C([Te]c2ccc(O)cc2)C(=O)c2ccccc2C1=O | 7.75 µM
* CN1CCN(CCCCN2c3ccccc3Sc3cc(N=[N+]=[N-])ccc32)CC1 | 25.8 µM
* COc1cc(/C=C\c2cccnc2)cc(OC)c1OC | > 100 µM
* NCCC(=O)N[C@@H](Cc1cc(O)c(O)c(SCC(NC(=O)CC[C@H](N)C(=O)O)C(=O)NCC(=O)O)c1)C(=O)O (stereo partly specified) | > 50 µM
* CC/C(=C(/c1ccc(O)cc1)c1ccc(OCCN2CCCCC2)cc1)c1ccc(OC)cc1 | 14.8 µM
* CC(C)(C)OC(=O)C1CC[C@@H](CC(=O)Oc2ccc([N+](=O)[O-])cc2)N1 (stereo partly specified) | > 100 µM
* COc1ccc(/C(CC2OC(=O)c3ccccc32)=N\NC(=O)C[N+](C)(C)C)cc1 (stereo unspecified) | > 100 µM
* N#CS.N=C=S.N=C=S.[Cu+2].[NH2-].[NH2-].[NH2-].[NH2-].c1ccc2ncccc2c1 | 41 µM
* Nc1nc(Nc2ccccc2)sc1C(=O)c1cccs1 | 32.1 µM
* Cc1nc2c(o1)C(=O)c1ccccc1C2=Nc1ccc(N2CCOCC2)cc1 | 33.6 µM
* Cc1nc(C(N)=S)sc1C(=O)CC(=O)C(=O)Nc1nc2ccccc2[nH]1 | > 100 µM
* N#CCC(=O)N/N=C(\C(=O)Nc1ccc(Cl)c(Cl)c1)C1CN(c2ccccc2)N=C1N (stereo unspecified) | > 100 µM
* NC(N)=NS(=O)(=O)c1ccc(Nc2c3ccccc3nc3c(C(=O)Nc4ccc(S(N)(=O)=O)cc4)ccc(Cl)c23)cc1 | > 100 µM
* CC[C@@]1(O)C(=O)OCc2c1cc1n(c2=O)Cc2c-1nc1cc3c(cc1c2C)OCO3 | 0.0379 µM
* O=C1OCc2cc3cc4c(cc3c(-c3ccc5c(c3)OCO5)c21)OCO4 (tested in a mixture with another compound) | 96.8 µM
* CCC[CH2][Sn]1([CH2]CCC)[O]C(=O)c2ccc(C)cc2[O]1 | 3.05 µM
* COc1cc(/C=C2\C(=O)N(C(=O)c3ccc(NC(C)=O)cc3)N=C2C)ccc1O | > 100 µM
* COc1ccccc1/C=C1\CCC(CCN2CCOCC2)C1=O (stereo unspecified) | > 100 µM
* COc1cc(-c2nn(-c3cccc(NC(=O)c4ccc(N5CCOCC5)c(C(F)(F)F)c4)c3)cc2-c2ccncc2)ccc1Cl | > 86.4 µM
* Cc1ccc(-c2nc(-c3cnccn3)n(C3OC(CO)C(O)C(O)C3O)n2)cc1 (stereo unspecified) | > 100 µM
* CNC(=O)c1cccc2c(Nc3ccc(NS(C)(=O)=O)cc3OC)c3cccc(C)c3nc12 | 3.54 µM
* Brc1cc2c(cc1C1SCCS1)OCO2 | > 100 µM
* S=C(N/N=C(/c1ccccc1)c1ccccn1)N1CCCCCC1 | 2.11 µM
* CCOC(=O)/C(=C(/C)NCC(C)C)c1cc(O)c(O)c2c(C)cc(=O)[nH]c12 | > 100 µM
* Cc1nn(-c2nc3ccccc3s2)c2c1C(=O)c1ccccc1-2 | > 100 µM
* O=C1C(Cl)C(c2cc3cc(Br)ccc3nc2Cl)N1c1ccc(Cl)cc1 (stereo unspecified) | > 25 µM
* COC(=O)c1ccc(Cl)cc1NC(=O)C1CCCCC1 | > 100 µM
* O=S(O)CCCSSc1ccccc1 | > 100 µM
* O=C(c1cc2c(c3ccccc13)NCCN=C2C(F)(F)F)C(F)(F)F | > 100 µM
* CCC1C(=O)C(O)[C@H]2[C@@H]3C(O)CC4=CC(=O)CC[C@]4(C)[C@H]3CC[C@]12C (stereo partly specified) | > 50 µM
* O=C(NO)c1ccc(Cn2c(=O)n(-c3ccccc3F)c(=O)c3ccccc32)cc1 | 7 µM
* OCC1OC(n2cnc3c(Cl)nc(Cl)cc32)C(O)C1O (stereo unspecified) | > 100 µM
* CC(C)(C)c1ccc(/C=N/NC(=O)CSCC(=O)N/N=C/c2ccc(C(C)(C)C)cc2)cc1 | 12.5 µM
* C#CCCCOc1ncccn1 | > 100 µM
* N#CC1=C(N)NC(=S)NC12Nc1ccccc1N2 | > 100 µM
* O=c1[nH]c(-n2[nH]c3c(c2=O)CCCC3)nc(O)c1-c1ccccc1 | > 100 µM
